# Tested on: SK-MEL-2 melanoma
# protocol_summary: NCI-60 one-dose screen, 48 h (100 = growth as untreated, 0 = no growth, -100 = all killed)
# stated_conditions: 10 µM unless noted
About 83,000 compounds went through this panel and 20% of them were active in at least one assay; those are over-represented in the sample as a whole.
recorded_metric: growth (%)
Answers are plain numbers, in %.

List growth for every entry below, keeping the order given.
1. N#Cc1ccccc1Cn1c2nc(=N)c3ccccc3c-2nc2ccccc21
2. COC[C@]12CCC(C)(C)C[C@H]1C1=CC[C@@H]3[C@@]4(C)CCCNC(C)(C)[C@@H]4CC[C@@]3(C)[C@]1(C)CC2
3. COc1ccc(NC(=O)CSc2nnc(-c3ccc4nc(-c5ccccc5)[nH]c4c3)o2)cc1
4. O=S(=O)(NC1c2ccccc2C[C@H]1O)c1ccc(Cl)cc1Cl (stereo not given in full)
5. CCO/C=N/C1=C(C#N)C(c2ccc(OC)cc2)c2sc3c(CC)cccc3c2O1 (stereo not given)

1: 87.9; 2: 35.2; 3: 105; 4: 101; 5: 41.4

Hey, just so you know, these numbers are from PubChem BioAssay (NCI).
